Items are presented alongside their recorded EC50.
# Tested on: Trypanosoma cruzi intracellular amastigotes
# METHOD SUMMARY: Activity against intracellular amastigotes of T. cruzi in infected peritoneal macrophages (EC50)
# Assay type: cell-based, Trypanosoma cruzi (Y strain)
# PARTICULARS: Trypanosoma cruzi, Peritoneal macrophage, in Mus musculus, 48 h, read-out: EC50 ± SD

O=C(O)c1ccc(O)c(O)c1 [protocatechuic acid, reference compound] | > 100 µM

Exam item: Please state recorded EC50 (tested on Trypanosoma cruzi intracellular amastigotes) of CC1=CC(=O)CC(C)(C)[C@@]1(O)/C=C/C(C)=C\C(=O)O [Compound 3, (+)-(S)-abscisic acid]
Marked response: > 100 µM
